- procedure.summary: basal CRE-LacZ reporter activity in PC12 – cell-based, unstimulated, primary screen (AID 1145)
- reported.conditions: no forskolin, luminescence, 4.5 h, higher = more signal, called active from +8 up or from −8 down
measure.name: z-score
Form field (numeric): enter value without unit.

Observe how each entry below is paired with its result.
- molecule: "CC(C)(C)OC(=O)CC[C@@]1(C(=O)NCCN2CCOCC2)N=C(c2ccc(OCCCO)cc2)O[C@@H]1c1ccccc1CN=[N+]=[N-]"
  assay.result: -0.277
- molecule: "N#Cc1ccc(C(O)C2C=CC3C(=O)NC(=O)C3N2Nc2ccc(Cl)cc2Cl)cc1 (stereo not given)"
  assay.result: 0.629
- molecule: "CCCN1C(=O)[C@@]2(c3ccc([N+](=O)[O-])cc3)CC(=O)N(CC34CC5CC(CC(C5)C3)C4)[C@@H]2c2ccc(CO)cc21"
  assay.result: 0.272
- molecule: "CCCC[C@H]1C[C@@H]1[C@@H]1N(C(C)=O)[C@H](c2cccc(OC)c2)CC12CC2"
  assay.result: 0.583

# input for lookup
Consider the molecule COC(=O)[C@@]1(Cc2ccc(F)cc2)[C@H]2c3cc(C(=O)N4CCCC4)n(Cc4cc(F)cc5c4OCOC5)c3C[C@H]2CN1C(=O)c1ccccc1 and give its measured z-score.
-0.372

====

- Tested on: Sam68 (KHDRBS1)
- procedure.summary: compounds binding KHDRBS1 protein – biochemical, small-molecule microarray, 635 nm fluorescence, primary screen (AID 1125);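 also: score merges 667 nm channel intensity with signal to noise over triplicate slides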
- reported.conditions: higher = more signal
measure.name: composite z-score
Form field (numeric): enter value without unit.

- molecule: "O=C(NC1CC1)[C@@H]1c2ccccc2C(=O)N(CC23CC4CC(CC(C4)C2)C3)[C@H]1c1ccc(CO)cc1"
  assay.result: 1.31

# input for lookup
Given the entry CC(C)NC(=O)[C@@]1(c2ccc([N+](=O)[O-])cc2)CC(=O)N(CC23CC4CC(CC(C4)C2)C3)[C@@H]1c1ccc(CO)cc1 , what composite z-score was observed with Sam68 (KHDRBS1)?
1.29

====

Measured z-score by item
- procedure.summary: optical density change of DRC41 E. coli – strain DRC41, OD650, 24 h, E. coli filamentation project, primary screen (AID 1093);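 also: MC1000 strain lacking acrAB efflux and sulA so SOS filamentation is blocked; test concentration not given here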
- reported.conditions: E. coli DRC41 growth, higher = more signal, called active from +8 up or from −8 down
Form field (numeric): enter value without unit.

Observe how each entry below is paired with its result.
- compound: "CCOC(=O)C1=CC[C@@H](c2ccccc2)N(S(=O)(=O)c2ccc(C)cc2)[C@H]1c1ccccc1I"
  assay.result: -0.162
- compound: "O=C1NC(=O)C2C1C=CC(C(O)c1ccc([N+](=O)[O-])cc1)N2Nc1ccccn1 (centres undefined)"
  assay.result: -0.562
- compound: "CCOC(=O)C1=CC[C@@H](c2ccc(OC)cc2)N(S(=O)(=O)c2ccc(C)cc2)[C@H]1c1ccc(C)cc1"
  assay.result: -0.747

# input for lookup
Consider the compound O=C1O[C@H](c2ccccc2)[C@H](c2ccccc2)N2[C@H]1[C@@H](C(=O)O)[C@]1(C(=O)Nc3ccc(C#CCCO)cc31)[C@H]2c1ccc(OCCO)cc1 and give its measured z-score.
1.71

====

Measured z-score by item
- target.desc: NADPH oxidase 5 (Homo sapiens)
- procedure.summary: compounds shifting NOX5 Amplex Red fluorescence – cell-based, HEK293-NOX5, NOX inhibitor project, primary screen (AID 1161)
- reported.conditions: HEK293-NOX5, ionomycin, 45 min, higher = more signal
Form field (numeric): enter value without unit.

Consider the compound C=C(CCCC)C(=O)CC[C@H](OC(=O)c1ccccc1-c1ccccc1C(=O)O)c1ccc(OCCO)cc1 and give its measured z-score.
-1.59

Consider the compound CN(C)CCCCNC(=O)[C@H]1C[C@H]2C(=O)N3CCC[C@H]3C(=O)N2[C@H]1c1cccc(OCCO)c1 and give its measured z-score.
0.803

Consider the compound C=CC1c2cc(O)c(OC)cc2CCN1C (stereo unspecified) and give its measured z-score.
-3.08

Consider the compound COCCOC(=O)N1C(=O)[C@@]2(c3cc(C#CCCO)ccc31)[C@H](c1ccccc1OCCO)N1[C@H](c3ccccc3)[C@H](c3ccccc3)OC(=O)[C@H]1[C@@H]2C(N)=O and give its measured z-score.
-0.302

Consider the compound C=C(COC)C(=O)CC[C@@H](OC(=O)c1ccccc1-c1ccccc1C(=O)O)c1ccc(OCCO)cc1 and give its measured z-score.
-1.32

Consider the compound COCCCNC(=O)[C@@]1(Sc2ccc(C)cc2)CC(=O)N(Cc2ccccc2C(F)(F)F)[C@@H]1c1ccc(CO)cc1I and give its measured z-score.
2.49

Consider the compound C=CCC(OC(C)=O)[C@@H]1[C@@H](N(Cc2ccc(-c3ccccc3)cc2)C(=O)c2cccc3ccccc23)c2cc(OCCCO)ccc2N1C(=O)Cc1ccc(OC)cc1 (stereo partly specified) and give its measured z-score.
-2.28

Consider the compound CC(C)C[C@H]1NC(=O)C([C@@H](C)OCc2ccccc2)NC(=O)[C@@]23C(=O)N[C@@H](Cc4ccccc4)C2[C@H](C)[C@@]2(C)O[C@H]2C3/C=C/C/C=C\CNC1=O (stereo partly specified) and give its measured z-score.
-2.51

Consider the compound COC(=O)[C@@]1(Cc2ccc(F)cc2)[C@H]2c3cc(C(=O)N(C)C)n(C)c3C[C@H]2CN1C(=O)c1ccccc1 and give its measured z-score.
-0.552

Consider the compound C=CC[C@@]1(C(=O)N(C)C)N=C(c2ccc(OCCCO)cc2)O[C@@H]1c1ccccc1CN=[N+]=[N-] and give its measured z-score.
-1.42

Consider the compound C=C(COC)C(=O)CC[C@@H](OC(C)=O)c1ccccc1OCCO and give its measured z-score.
-1.38

====

Measured composite z-score by item
- procedure.summary: compounds binding Alexa647 anti-His antibody – biochemical, small-molecule microarray, 635 nm fluorescence, artefact control for SMM control protein annotation, primary screen (AID 1128);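 also: score merges feature fluorescence with signal-to-noise for each printed compound spot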
- reported.conditions: higher = more signal

- compound: "O=C(NC1CC1)[C@@H]1c2ccccc2C(=O)N(Cc2cc(C(F)(F)F)cc(C(F)(F)F)c2)[C@H]1c1ccc(CO)cc1"
  composite z-score: 0.399

Consider the compound COCCOC(=O)N1C(=O)[C@@]2(c3cc(C#Cc4ccc(OC)cc4)ccc31)[C@H](c1ccc(OCCO)cc1)N1[C@H](c3ccccc3)[C@H](c3ccccc3)OC(=O)[C@H]1[C@@H]2C(=O)NC[C@H](O)c1ccccc1 and give its measured composite z-score.
1.2

Consider the compound COc1cc(C(O)C2C=CC3C(=O)N(c4ccccc4)C(=O)C3N2Nc2ccccc2F)cc(OC)c1OC (centres undefined) and give its measured composite z-score.
1.66

Consider the compound CO[C@H]1O[C@H](CO)[C@@H](OC(=O)Nc2ccc3c(c2)OCO3)[C@H](OC(=O)Nc2ccccc2-c2ccccc2)[C@H]1OC(=O)Nc1ccccc1-c1ccccc1 and give its measured composite z-score.
1.73

====

Measured z-score by item
- procedure.summary: ATP-based viability of Huh7 replicon cells – cell-based, CellTiter-Glo luminescence, basal, 48 h, cytotoxicity control for HCV replication inhibitor project, primary screen (AID 1143);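 also: Huh7 hepatoma cells carrying a hepatitis C replication reporter with no stimulus; test concentration not given here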
- reported.conditions: higher = more signal, called active from +8 up or from −8 down
Form field (numeric): enter value without unit.

- compound: "CC1CC/C=C\\[C@H]2OC34C=CCN(c5ccc(Cl)cc5)C(=O)[C@H]3N(CCCCCCO)C(=O)[C@]4(C)C2C(=O)O1 (stereo partly specified)"
  z-score: 0.641
- compound: "C=C(CCCC)/C(=C/C[C@H](OC(=O)c1ccncc1)c1ccc(OCCO)cc1)c1cnc2ccccc2c1"
  z-score: -1.17
- compound: "COc1ccc(C(=O)Nc2cccc(CN3C(=O)[C@]4(O[C@H](CC(=O)N5Cc6ccccc6C[C@H]5CO)[C@@H]([Si](C)(C)c5ccc(OC)cc5)[C@@H]4C)c4ccccc43)c2)cc1"
  z-score: -3.89
- compound: "CN1C(=O)C2C(C3CC3)C=C3CN(Cc4cccc(Cl)c4)[C@@H]([C@@H](O)Cc4ccccc4)C3C2C1=O (stereo partly specified)"
  z-score: -1.85

Consider the compound COCCOC(=O)N1C(=O)[C@@]2(c3cc(C#CCNC(N)=O)ccc31)[C@H](C(=O)Nc1nc3ccccc3s1)[C@H]1C(=O)O[C@H](c3ccccc3)[C@H](c3ccccc3)N1[C@@H]2c1ccccc1OCCO and give its measured z-score.
-2.11

Consider the compound O=C1C[C@@](C(=O)O)(c2ccc([N+](=O)[O-])cc2)[C@@H](c2ccc(CO)cc2)N1C1CCCCC1 and give its measured z-score.
-3.27

====

- procedure.summary: probe aNog binding to arrayed compounds – biochemical, biotinylated probe, 635/667 nm fluorescence, primary screen (AID 1115);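 also: probe is biotinylated aNog protein used at 0.15 µg/mL for 1 h at 4 C; z-score combines 667 nm fluorescence of each spot with its signal to noise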
- reported.conditions: small-molecule microarray, higher = more signal
Use Satisfied when the recorded composite z-score is no lower than -0.04; use Not satisfied when it is lower.

Some entries whose results are on file:
- compound: "COc1ccc([Si](C)(C)[C@H]2[C@H](CCO)O[C@@]3(C(=O)N(Cc4cccc(N5C(=O)c6ccccc6Oc6ccccc65)c4)c4ccccc43)[C@@H]2C)cc1"
  class.label: "Not satisfied"
- compound: "C[C@@H]1ON(c2ccccc2)[C@H](c2ccccc2)[C@H]1C(=O)O"
  class.label: "Satisfied"
- compound: "COc1ccc([Si](C)(C)[C@@H]2[C@@H](CC(=O)N3Cc4ccccc4C[C@H]3CO)O[C@]3(C(=O)N(Cc4cccc(N5CCOC5=O)c4)c4ccccc43)[C@H]2C)cc1"
  class.label: "Not satisfied"
- compound: "CCOc1cc(C(O)C2C=CC3C(=O)N(c4ccccc4)C(=O)C3N2Nc2ccccc2F)ccc1O (stereo not drawn)"
  class.label: "Satisfied"
- compound: "COCCOC(=O)N1C(=O)[C@@]2(c3ccccc31)[C@H](c1ccc(O)cc1)N1[C@H](c3ccccc3)[C@H](c3ccccc3)OC(=O)[C@H]1[C@@H]2C(=O)N1CCCCCCC1"
  class.label: "Satisfied"

Say whether COc1ccc([Si](C)(C)[C@@H]2[C@@H](CC(=O)N3CCC[C@H]3CO)O[C@]3(C(=O)N(Cc4ccc(N5CCOC5=O)cc4)c4ccccc43)[C@H]2C)cc1 shows composite z-score of -0.04 or more.
Not satisfied

Say whether C=CCC(OC(C)=O)[C@@H]1[C@@H](N(Cc2cc3ccccc3o2)C(=O)c2cccc3ccccc23)c2cc(OCCCO)ccc2N1C(=O)c1ccc2ccccc2n1 (stereo partly drawn) shows composite z-score of -0.04 or more.
Satisfied

Say whether COC(=O)[C@]1(CCC(=O)OC(C)(C)C)N=C(c2ccc(OCCCO)cc2)O[C@@H]1c1ccccc1N=[N+]=[N-] shows composite z-score of -0.04 or more.
Satisfied
